Record form. Attribute: IC50 at 24 h. Fill in for each entry.
# Method: HepG2 cytotoxicity assay
# Type: cell-based, human
# Study conditions: human, HepG2 cells
# unit: µM | format: bare number

Request: Fill blank: measured IC50 at 24 h of the compound Cl.N=C(NN=Cc1ccc(Cl)cc1)NN=Cc1ccc(Cl)cc1 [robenidine, reference compound] is ____.
Result: 30

Request: Also CCN(CC)CCCC(C)Nc1ccnc2cc(Cl)ccc12 (centres unmarked) [chloroquine, reference compound] , if possible.
Result: 181

Request: Also O=C1C(O)=C([C@H]2CC[C@H](c3ccc(Cl)cc3)CC2)C(=O)c2ccccc21 [atovaquone, reference compound] , if possible.
Result: 72

Data provenance is paper PMC8273112.
